Target: 5-hydroxytryptamine receptor 3A (Cavia porcellus)
Sequence (O70212 whole entry): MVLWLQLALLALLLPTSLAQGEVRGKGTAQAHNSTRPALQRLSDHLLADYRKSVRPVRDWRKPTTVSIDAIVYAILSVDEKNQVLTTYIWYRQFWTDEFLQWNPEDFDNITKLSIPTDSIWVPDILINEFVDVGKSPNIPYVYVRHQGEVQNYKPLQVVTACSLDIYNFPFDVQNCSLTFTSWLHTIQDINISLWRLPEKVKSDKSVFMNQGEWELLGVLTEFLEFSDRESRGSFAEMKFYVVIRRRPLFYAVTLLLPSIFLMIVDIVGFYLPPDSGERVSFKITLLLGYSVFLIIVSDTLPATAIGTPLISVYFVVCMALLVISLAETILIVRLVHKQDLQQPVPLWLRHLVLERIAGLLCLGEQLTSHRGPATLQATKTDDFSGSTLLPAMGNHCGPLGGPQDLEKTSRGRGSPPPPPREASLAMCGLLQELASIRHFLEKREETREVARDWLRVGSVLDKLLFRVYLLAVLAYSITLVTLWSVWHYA
Experiment: Antagonist effect against 2-methyl-5-HT activity at 5-HT3 receptor in longitudinal muscle myenteric plexus from guinea pig ileum
Type: functional, tissue-based
Settings: read-out: pA2 (converted)
Friendly reminder: Kb below 100 µM is yes (1), at or above is no (0).

Data request: Please determine if CCOc1nc2ccccc2nc1C(=O)Nc1ccc(O)c(CN2CCN(CC)CC2)c1 is below 100 µM in terms of Kb.
Data returned: no (0)

Data request: Please determine if COc1nc2ccccc2nc1C(=O)Nc1ccc(O)c(CN2CCN(C)CC2)c1 is below 100 µM in terms of Kb.
Data returned: yes (1)

Data request: Please determine if CCN1CCN(Cc2cc(NC(=O)c3nc4ccccc4nc3OC)cc(N3CCN(CC)CC3)c2O)CC1 is below 100 µM in terms of Kb.
Data returned: yes (1)

Data request: Please determine if COc1nc2ccccc2nc1C(=O)Nc1ccc(O)c(CN2CCNCC2)c1 is below 100 µM in terms of Kb.
Data returned: yes (1)

Data request: Please determine if COc1nc2ccccc2nc1C(=O)Nc1cc(CN2CCCC2)c(O)c(N2CCCC2)c1 is below 100 µM in terms of Kb.
Data returned: no (0)

Data request: Please determine if COc1nc2ccccc2nc1C(=O)Nc1ccc(O)c(CN2CCCC2)c1 is below 100 µM in terms of Kb.
Data returned: no (0)

Data request: Please determine if CCOc1nc2ccccc2nc1C(=O)Nc1cc(CN2CCOCC2)c(O)c(N2CCOCC2)c1 is below 100 µM in terms of Kb.
Data returned: no (0)

Data request: Please determine if CCOc1nc2ccccc2nc1C(=O)Nc1ccc(O)c(CN2CCN(C)CC2)c1 is below 100 µM in terms of Kb.
Data returned: yes (1)

Data request: Please determine if CCOc1nc2ccccc2nc1C(=O)Nc1cc(CN2CCN(CC)CC2)c(O)c(N2CCN(CC)CC2)c1 is below 100 µM in terms of Kb.
Data returned: no (0)

Data request: Please determine if COc1nc2ccccc2nc1C(=O)Nc1cc(CN2CCOCC2)c(O)c(N2CCOCC2)c1 is below 100 µM in terms of Kb.
Data returned: no (0)

Data request: Please determine if CCOc1nc2ccccc2nc1C(=O)Nc1ccc(O)c(CN2CCCC2)c1 is below 100 µM in terms of Kb.
Data returned: no (0)

Data request: Please determine if CCN1CCN(Cc2cc(NC(=O)c3nc4ccccc4nc3OC)ccc2O)CC1 is below 100 µM in terms of Kb.
Data returned: yes (1)

Data request: Please determine if CCOc1nc2ccccc2nc1C(=O)Nc1cc(CN2CCCC2)c(O)c(N2CCCC2)c1 is below 100 µM in terms of Kb.
Data returned: no (0)

Data request: Please determine if CCOc1nc2ccccc2nc1C(=O)Nc1cc(CN2CCNCC2)c(O)c(N2CCNCC2)c1 is below 100 µM in terms of Kb.
Data returned: no (0)

Data request: Please determine if CCOc1nc2ccccc2nc1C(=O)Nc1cc(CN2CCN(C)CC2)c(O)c(N2CCN(C)CC2)c1 is below 100 µM in terms of Kb.
Data returned: no (0)

Data request: Please determine if CCOc1nc2ccccc2nc1C(=O)Nc1ccc(O)c(CN2CCNCC2)c1 is below 100 µM in terms of Kb.
Data returned: no (0)

Data credit: ChEMBL document CHEMBL1147014
